assay: Noncompartmental PK of rutin after intravenous administration of pure rutin or P. peruviana extract; format: in vivo, New Zealand White rabbits; details: male, New Zealand White, rabbit, plasma, iv; rutin; i.v.; pure rutin 0.37 mg/kg, extract equivalent to 1.48 mg/kg of rutin; NCA; mean ± SD, n = 5; read-out: λz (converted)

[
  {
    "molecule": "C[C@@H]1O[C@@H](OC[C@H]2O[C@@H](Oc3c(-c4ccc(O)c(O)c4)oc4cc(O)cc(O)c4c3=O)[C@H](O)[C@@H](O)[C@@H]2O)[C@H](O)[C@H](O)[C@H]1O [Pure Rutin, quercetin-3-O-rutinoside]",
    "readout-units": "s⁻¹",
    "k el": 0.000294
  }
]
